// provenance: the Human Domainome abundance scans (Beltran et al. 2025)

B1: Syntaxin-binding protein 4, residues 493 to 538; numbered along this chain, Q6ZWJ1 (parent)
chain: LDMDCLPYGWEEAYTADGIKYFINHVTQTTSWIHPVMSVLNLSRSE

Variants of: B1
assay-explanation: abundance fitness (aPCA) (normalised: wild type 0, dead -1); higher = more abundant; growth selection in yeast, the domain comes from the species named
run-conditions: Homo sapiens
result-type: abundance fitness

Reported abundance fitness of M37S : 0.28

Reported abundance fitness of P35F : -0.895

Reported abundance fitness of T15D : -0.509

Reported abundance fitness of S43T : -0.183

Reported abundance fitness of H34K : -0.686

Reported abundance fitness of K20P : -0.141

Reported abundance fitness of N41P : -0.38

Reported abundance fitness of S43R : -0.17

Reported abundance fitness of L40C : -0.154

Reported abundance fitness of W10F : -0.796

Reported abundance fitness of Q28A : -0.509

Reported abundance fitness of A16T : -0.408

Reported abundance fitness of M37L : -0.085

Reported abundance fitness of H34D : -0.54

Reported abundance fitness of A16K : 0.211

Reported abundance fitness of G18P : -0.834

Reported abundance fitness of D4T : -0.535

Reported abundance fitness of D2L : -0.424

Reported abundance fitness of D4L : -0.638

Reported abundance fitness of M37P : -0.603

Reported abundance fitness of I23R : -0.241

Reported abundance fitness of M3A : -0.058

Reported abundance fitness of W32K : -0.576

Reported abundance fitness of L40G : 0.164

Reported abundance fitness of D17I : -0.63

Reported abundance fitness of D17N : -0.548

Reported abundance fitness of E11P : -0.78

Reported abundance fitness of V36N : 0.571

Reported abundance fitness of E12F : -0.801

Reported abundance fitness of T27H : 0.176

Reported abundance fitness of N24C : -0.798

Reported abundance fitness of I33E : 0.511

Reported abundance fitness of Y8A : 0.198
